# system: protein kinase C delta (Homo sapiens, UniProt Q05655)
# Sequence (Q05655 whole entry): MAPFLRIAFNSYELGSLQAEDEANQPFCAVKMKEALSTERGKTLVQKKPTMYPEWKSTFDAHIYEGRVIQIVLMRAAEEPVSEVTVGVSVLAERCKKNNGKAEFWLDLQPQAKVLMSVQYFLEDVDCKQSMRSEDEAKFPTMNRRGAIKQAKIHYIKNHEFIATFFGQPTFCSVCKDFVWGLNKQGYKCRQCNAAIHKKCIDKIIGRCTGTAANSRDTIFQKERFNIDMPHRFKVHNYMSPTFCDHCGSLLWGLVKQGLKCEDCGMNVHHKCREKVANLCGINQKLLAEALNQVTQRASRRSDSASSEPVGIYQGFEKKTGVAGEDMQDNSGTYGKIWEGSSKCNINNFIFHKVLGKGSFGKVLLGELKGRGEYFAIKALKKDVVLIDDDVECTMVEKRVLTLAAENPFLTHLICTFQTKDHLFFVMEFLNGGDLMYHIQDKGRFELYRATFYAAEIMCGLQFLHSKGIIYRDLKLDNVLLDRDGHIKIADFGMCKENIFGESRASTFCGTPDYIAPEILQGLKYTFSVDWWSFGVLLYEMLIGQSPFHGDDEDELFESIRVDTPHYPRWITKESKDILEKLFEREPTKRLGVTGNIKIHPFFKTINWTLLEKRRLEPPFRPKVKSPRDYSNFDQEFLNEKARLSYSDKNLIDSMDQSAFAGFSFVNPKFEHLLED
# protocol.text: biochemical
# experimental.context: PKC delta; 30 μM ATP, 30° C., 10 minutes; read-out: IC50 δ
Note to self: class labels come from recorded IC50, ranges listed here: range A (below 0.9 µM), range B (0.9 µM to below 4 µM), range C (4 µM or more)

Q: Could you place CC(=O)NCC1OC(OCCCCn2cc(C3=C(c4cn(C)c5ccccc45)C(=O)NC3=O)c3ccccc32)CC1OC(C)=O (stereo not shown) in its proper category? Many thanks.
Ans: range B

Q: Could you place O=C1NC(=O)C(c2cn(Cc3ccccc3)c3ccccc23)=C1c1c[nH]c2ccccc12 in its proper category? Many thanks.
Ans: range C

Q: Could you place O=C1NC(=O)C(c2cn(C3CCNCC3)c3ccccc23)=C1c1c[nH]c2ccccc12 in its proper category? Many thanks.
Ans: range A

Q: Could you place Cn1cc(C2=C(c3c4n(c5ccccc35)CCC(CO)C4)C(=O)NC2=O)c2ccccc21 (stereo not shown) in its proper category? Many thanks.
Ans: range A

Q: Could you place Cn1cc(C2=C(c3cn(CCO[C@@H]4O[C@H](CN=[N+]=[N-])[C@H](O)[C@H](O)[C@H]4O)c4ccccc34)C(=O)NC2=O)c2ccccc21 in its proper category? Many thanks.
Ans: range C

Q: Could you place Cn1cc(C2=C(c3c[nH]c4ccccc34)C(=O)NC2=O)c2ccccc21 in its proper category? Many thanks.
Ans: range B

Q: Could you place Cn1cc(C2=C(c3cn(CCOC4C[C@H](N)[C@@H](CO)O4)c4ccccc34)C(=O)NC2=O)c2ccccc21 (stereo partly shown) in its proper category? Many thanks.
Ans: range B

Q: Could you place CN(C)CCCn1cc(C2=C(c3cn(C)c4ccccc34)C(=O)NC2=O)c2ccccc21 in its proper category? Many thanks.
Ans: range B

Q: Could you place Cc1c(C2=C(c3cn(CN(C)C)c4ccccc34)C(=O)NC2=O)c2ccccc2n1CCCN(C)C in its proper category? Many thanks.
Ans: range B

Q: Could you place Cn1cc(C2=C(c3cn(CCOC4OC(CN)C(O)C(O)C4O)c4ccccc34)C(=O)NC2=O)c2ccccc21 (stereo not shown) in its proper category? Many thanks.
Ans: range C

Q: Could you place Cn1cc(C2=C(c3cn(C4CCN(C(=N)N)CC4)c4ccccc34)C(=O)NC2=O)c2ccccc21 in its proper category? Many thanks.
Ans: range A

Q: Could you place Cn1cc(C2=C(c3cn(C4CCN(Cc5ccccc5)CC4)c4ccccc34)C(=O)NC2=O)c2ccccc21 in its proper category? Many thanks.
Ans: range C

Q: Could you place Cc1c(C2=C(c3c(C)n(CN(C)C)c4ccccc34)C(=O)NC2=O)c2ccccc2n1CCCN(C)C in its proper category? Many thanks.
Ans: range C

Q: Could you place Cn1cc(C2=C(c3cn(C4CN(C(c5ccccc5)c5ccccc5)C4)c4ccccc34)C(=O)NC2=O)c2ccccc21 in its proper category? Many thanks.
Ans: range C

Q: Could you place CCN1CCC(n2cc(C3=C(c4cn(C)c5ccccc45)C(=O)NC3=O)c3ccccc32)CC1 in its proper category? Many thanks.
Ans: range A

Q: Could you place Cn1cc(C2=C(c3cn(CCOC4O[C@H](CO)[C@@H](O)[C@@H](N=[N+]=[N-])[C@H]4O)c4ccccc34)C(=O)NC2=O)c2ccccc21 (stereo partly shown) in its proper category? Many thanks.
Ans: range B

Q: Could you place Cn1cc(C2=C(c3cn(CCCCOC4C[C@H](O)[C@@H](CO)O4)c4ccccc34)C(=O)NC2=O)c2ccccc21 (stereo partly shown) in its proper category? Many thanks.
Ans: range B

Q: Could you place CC(C)N1CCC(n2cc(C3=C(c4cn(C)c5ccccc45)C(=O)NC3=O)c3ccccc32)CC1 in its proper category? Many thanks.
Ans: range B

Q: Could you place Cn1cc(C2=C(c3cn(C4CCN(C(=NC(=O)OC(C)(C)C)NC(=O)OC(C)(C)C)CC4)c4ccccc34)C(=O)NC2=O)c2ccccc21 in its proper category? Many thanks.
Ans: range A

Q: Could you place CC(=O)N1CCC(n2cc(C3=C(c4cn(C)c5ccccc45)C(=O)NC3=O)c3ccccc32)CC1 in its proper category? Many thanks.
Ans: range A

Q: Could you place Cn1cc(C2=C(c3cn(CCOC4O[C@H](CO)[C@@H](O)[C@@H](O)[C@H]4N=[N+]=[N-])c4ccccc34)C(=O)NC2=O)c2ccccc21 (stereo partly shown) in its proper category? Many thanks.
Ans: range C

Q: Could you place Cn1cc(C2=C(c3cn(CCO[C@H]4O[C@H](CN)[C@H](O)[C@H](O)[C@H]4O)c4ccccc34)C(=O)NC2=O)c2ccccc21 in its proper category? Many thanks.
Ans: range C

Q: Could you place CN1CCC(Cn2cc(C3=C(c4cn(C)c5ccccc45)C(=O)NC3=O)c3ccccc32)CC1 in its proper category? Many thanks.
Ans: range B

Q: Could you place Cn1cc(C2=C(c3cn(C4CCN(c5ccccn5)CC4)c4ccccc34)C(=O)NC2=O)c2ccccc21 in its proper category? Many thanks.
Ans: range B

Q: Could you place CN1CCC(n2cc(C3=C(c4cn(C)c5ccccc45)C(=O)NC3=O)c3ccccc32)CC1 in its proper category? Many thanks.
Ans: range A

Q: Could you place Cn1cc(C2=C(c3cn(CCOC4C[C@H](N=[N+]=[N-])[C@@H](CO)O4)c4ccccc34)C(=O)NC2=O)c2ccccc21 (stereo partly shown) in its proper category? Many thanks.
Ans: range B

Q: Could you place Cn1cc(C2=C(c3cn(CCCCOC4CC(O)C(CN)O4)c4ccccc34)C(=O)NC2=O)c2ccccc21 (stereo not shown) [Example 53] in its proper category? Many thanks.
Ans: range B

Q: Could you place Cn1cc(C2=C(c3cn(CCO[C@@H]4C[C@H](O)[C@@H](CN=[N+]=[N-])O4)c4ccccc34)C(=O)NC2=O)c2ccccc21 in its proper category? Many thanks.
Ans: range C
